This listing pairs molecules with measured Cmax.
- Protocol description: Cmax in Sprague-Dawley rat at 5 mg/kg, po
- Assay type: ADME, organism-based
- Set-up: dose 5 mg/kg, route oral
- Test conditions: in vivo
Give the value in nM but do not write nM after it.

{"columns": ["Test smiles", "Measurement unit", "Val"],
 "data": [
  ["C=C(C)[C@@H]1CC[C@]2(C(=O)NCCc3ccc(OC)cc3)CC[C@]3(C)[C@H](CC[C@@H]4[C@@]5(C)CC[C@H](OC(=O)CC(C)(C)C(=O)O)C(C)(C)[C@@H]5CC[C@]43C)[C@@H]12", "nM", 40],
  ["C=C(C)[C@@H]1CC[C@]2(C(=O)NCc3ccccc3OC)CC[C@]3(C)[C@H](CC[C@@H]4[C@@]5(C)CC[C@H](OC(=O)CC(C)(C)C(=O)O)C(C)(C)[C@@H]5CC[C@]43C)[C@@H]12", "nM", 40],
  ["C=C(C)[C@@H]1CC[C@]2(C(=O)NCc3ccc(Cl)cc3)CC[C@]3(C)[C@H](CC[C@@H]4[C@@]5(C)CC[C@H](OC(=O)CC(C)(C)C(=O)O)C(C)(C)[C@@H]5CC[C@]43C)[C@@H]12", "nM", 270]
]}

Inquiry: Field request: Cmax | item: C=C(C)[C@@H]1CC[C@]2(C(=O)NCc3ccccc3C(=O)O)CC[C@]3(C)[C@H](CC[C@@H]4[C@@]5(C)CC[C@H](OC(=O)CC(C)(C)C(=O)O)C(C)(C)[C@@H]5CC[C@]43C)[C@@H]12
Reply text: 580

###

This listing pairs molecules with measured CC50.
- Protocol description: Cytotoxicity against human PBMC by cell viability assay
- Assay type: cell-based
- Test conditions: read-out: TC50 (the source's name)

The examples below pair each entry with its known result.
{"columns": ["Test smiles", "Measure", "Val"],
 "data": [
  ["C=C(C)[C@@H]1CC[C@]2(C(=O)NCc3ccccc3C(=O)O)CC[C@]3(C)[C@H](CC[C@@H]4[C@@]5(C)CC[C@H](OC(=O)CC(C)(C)C(=O)O)C(C)(C)[C@@H]5CC[C@]43C)[C@@H]12", "CC50", "9.7 µM"],
  ["C=C(C)[C@@H]1CC[C@]2(C(=O)NCc3ccc(Cl)cc3)CC[C@]3(C)[C@H](CC[C@@H]4[C@@]5(C)CC[C@H](OC(=O)CC(C)(C)C(=O)O)C(C)(C)[C@@H]5CC[C@]43C)[C@@H]12", "CC50", "> 10 µM"],
  ["C=C(C)[C@@H]1CC[C@]2(C(=O)NCc3ccc4c(c3)OCO4)CC[C@]3(C)[C@H](CC[C@@H]4[C@@]5(C)CC[C@H](OC(=O)CC(C)(C)C(=O)O)C(C)(C)[C@@H]5CC[C@]43C)[C@@H]12", "CC50", "> 10 µM"],
  ["C=C(C)[C@@H]1CC[C@]2(C(=O)NCc3ccc(OC)cc3)CC[C@]3(C)[C@H](CC[C@@H]4[C@@]5(C)CC[C@H](OC(=O)CC(C)(C)C(=O)O)C(C)(C)[C@@H]5CC[C@]43C)[C@@H]12", "CC50", "> 10 µM"],
  ["C=C(C)[C@@H]1CC[C@]2(C(=O)NCc3ccoc3)CC[C@]3(C)[C@H](CC[C@@H]4[C@@]5(C)CC[C@H](OC(=O)CC(C)(C)C(=O)O)C(C)(C)[C@@H]5CC[C@]43C)[C@@H]12", "CC50", "> 10 µM"],
  ["C=C(C)[C@@H]1CC[C@]2(C(=O)NCc3ccc(F)cc3C(=O)O)CC[C@]3(C)[C@H](CC[C@@H]4[C@@]5(C)CC[C@H](OC(=O)CC(C)(C)C(=O)O)C(C)(C)[C@@H]5CC[C@]43C)[C@@H]12", "CC50", "1.5 µM"],
  ["C=C(C)[C@@H]1CC[C@]2(C(=O)NCc3ccc4cccc(O)c4n3)CC[C@]3(C)[C@H](CC[C@@H]4[C@@]5(C)CC[C@H](OC(=O)CC(C)(C)C(=O)O)C(C)(C)[C@@H]5CC[C@]43C)[C@@H]12", "CC50", "> 10 µM"],
  ["C=C(C)[C@@H]1CC[C@]2(C(=O)NCc3cccc(OC)c3)CC[C@]3(C)[C@H](CC[C@@H]4[C@@]5(C)CC[C@H](OC(=O)CC(C)(C)C(=O)O)C(C)(C)[C@@H]5CC[C@]43C)[C@@H]12", "CC50", "> 10 µM"]
]}

Inquiry: Field request: CC50 | item: C=C(C)[C@@H]1CC[C@]2(C(=O)NCc3cccnc3C(=O)O)CC[C@]3(C)[C@H](CC[C@@H]4[C@@]5(C)CC[C@H](OC(=O)CC(C)(C)C(=O)O)C(C)(C)[C@@H]5CC[C@]43C)[C@@H]12
Reply text: > 10 µM

Inquiry: Field request: CC50 | item: C=C(C)[C@@H]1CC[C@]2(C(=O)NCCc3ccccc3C(=O)NCCC(=O)O)CC[C@]3(C)[C@H](CC[C@@H]4[C@@]5(C)CC[C@H](OC(=O)CC(C)(C)C(=O)O)C(C)(C)[C@@H]5CC[C@]43C)[C@@H]12
Reply text: 11 µM

Inquiry: Field request: CC50 | item: C=C(C)[C@@H]1CC[C@]2(C(=O)NCc3ccccc3)CC[C@]3(C)[C@H](CC[C@@H]4[C@@]5(C)CC[C@H](OC(=O)CC(C)(C)C(=O)O)C(C)(C)[C@@H]5CC[C@]43C)[C@@H]12
Reply text: > 10 µM

###

- Protocol description: Half life in Sprague-Dawley rat at 7.5 mg/kg, po
- Format: ADME, organism-based
- Design: dose 7.5 mg/kg, route oral
- Test conditions: in vivo
Measure: half-life (h)
Give the value in h but do not write h after it.

Inquiry: Field request: half-life | item: C=C(C)[C@@H]1CC[C@]2(C(=O)NCCc3ccccc3C(=O)NCCC(=O)O)CC[C@]3(C)[C@H](CC[C@@H]4[C@@]5(C)CC[C@H](OC(=O)CC(C)(C)C(=O)O)C(C)(C)[C@@H]5CC[C@]43C)[C@@H]12
Reply text: 4.54

###

This listing pairs molecules with measured AUC(0-inf).
- Protocol description: AUC (0 to infinity) in Sprague-Dawley rat at 5 mg/kg, po
- Format: ADME, organism-based
- Parameters: time infinity, dose 5 mg/kg, route oral
- Test conditions: plasma
Give the value in µg·h/mL but do not write µg·h/mL after it.

The examples below pair each entry with its known result.
{"columns": ["Test smiles", "Measurement unit", "AUC(0-inf)"],
 "data": [
  ["C=C(C)[C@@H]1CC[C@]2(C(=O)NCc3ccc(Cl)cc3)CC[C@]3(C)[C@H](CC[C@@H]4[C@@]5(C)CC[C@H](OC(=O)CC(C)(C)C(=O)O)C(C)(C)[C@@H]5CC[C@]43C)[C@@H]12", "µg·h/mL", 1.34],
  ["C=C(C)[C@@H]1CC[C@]2(C(=O)NCCc3ccc(OC)cc3)CC[C@]3(C)[C@H](CC[C@@H]4[C@@]5(C)CC[C@H](OC(=O)CC(C)(C)C(=O)O)C(C)(C)[C@@H]5CC[C@]43C)[C@@H]12", "µg·h/mL", 0.245],
  ["C=C(C)[C@@H]1CC[C@]2(C(=O)NCc3ccccc3C(=O)O)CC[C@]3(C)[C@H](CC[C@@H]4[C@@]5(C)CC[C@H](OC(=O)CC(C)(C)C(=O)O)C(C)(C)[C@@H]5CC[C@]43C)[C@@H]12", "µg·h/mL", 1.7]
]}

Next, consider the following molecule.
Inquiry: Field request: AUC(0-inf) | item: C=C(C)[C@@H]1CC[C@]2(C(=O)NCc3ccccc3OC)CC[C@]3(C)[C@H](CC[C@@H]4[C@@]5(C)CC[C@H](OC(=O)CC(C)(C)C(=O)O)C(C)(C)[C@@H]5CC[C@]43C)[C@@H]12
Reply text: 0.114

###

- Protocol description: Cmax in Sprague-Dawley rat at 10 mg/kg, po
- Format: ADME, organism-based
- Design: dose 10 mg/kg, route oral
- Test conditions: in vivo
Measure: Cmax (nM)
Give the value in nM but do not write nM after it.

Inquiry: Field request: Cmax | item: C=C(C)[C@@H]1CC[C@]2(C(=O)NCCc3ccccc3C(=O)NCCC(=O)O)CC[C@]3(C)[C@H](CC[C@@H]4[C@@]5(C)CC[C@H](OC(=O)CC(C)(C)C(=O)O)C(C)(C)[C@@H]5CC[C@]43C)[C@@H]12
Reply text: 70

###

- Protocol description: Metabolic stability in Sprague-Dawley rat liver microsomes assessed as compound remaining after 40 mins
- Type: ADME, Microsome
- Test conditions: read-out: Stability
This listing pairs molecules with measured remaining at 40 min.
Give the value in % but do not write % after it.

Inquiry: Field request: remaining at 40 min | item: C=C(C)[C@@H]1CC[C@]2(C(=O)NCc3cccc(C(=O)O)c3)CC[C@]3(C)[C@H](CC[C@@H]4[C@@]5(C)CC[C@H](OC(=O)CC(C)(C)C(=O)O)C(C)(C)[C@@H]5CC[C@]43C)[C@@H]12
Reply text: 10

Inquiry: Field request: remaining at 40 min | item: C=C(C)[C@@H]1CC[C@]2(C(=O)NCc3ccc(OC)cc3)CC[C@]3(C)[C@H](CC[C@@H]4[C@@]5(C)CC[C@H](OC(=O)CC(C)(C)C(=O)O)C(C)(C)[C@@H]5CC[C@]43C)[C@@H]12
Reply text: 10
